Molecular target: T1, human EpCAM protein (human, UniProt P16422 24-265)
T1 construct: biotinylated in the Octet assays; also called hu EpCAM; biotinylated human EpCAM protein
T1 sequence (looked up): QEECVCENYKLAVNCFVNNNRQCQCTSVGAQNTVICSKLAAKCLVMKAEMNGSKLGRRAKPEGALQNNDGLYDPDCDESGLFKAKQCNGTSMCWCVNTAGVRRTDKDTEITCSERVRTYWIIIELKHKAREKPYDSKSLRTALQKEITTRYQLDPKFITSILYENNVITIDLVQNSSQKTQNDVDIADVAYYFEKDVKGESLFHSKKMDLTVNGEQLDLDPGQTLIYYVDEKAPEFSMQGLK
Experiment: colorimetric ELISA
As shown below, each of these binders has a reported ELISA absorbance value.

| binder | experimental.endpoint | readout.value |
| --- | --- | --- |
| Llama anti-EpCAM single domain antibody EPL86 (VHH, E. coli periplasmic extract) VHH: QVQLQESGGGLVQPGGSLRLSCAASGFTFSDWAMSWVRQAPGKGLEWVSGIHYGDHTTHYADFVKGRFTISRDDAKNTLYLQMNSLKPEDTAVYYCARGSTKGQGTQVTVSS | ELISA absorbance | 0.8 absorbance |

Continue with the binder presented below.
Value of ELISA absorbance reported for the binder Llama anti-EpCAM single domain antibody EPL74 (VHH, E. coli periplasmic extract) VHH: QVQLQESGGGLVQAGGSLRLSCAASGSIFGINAMGWYRQAPGKQRESVAFITIGGNTNYLDSVKGRFTISRDNAKNTVYLQMNGLKPEDTAVYYCNTNPPLILTAGGLYWGQGTQVTVSS is 1.4 absorbance
